Molecular target: T1, BCMA on cells (293T cells transfected with BCMA; H929, MM.1S and U266 cell lines expressing BCMA) (human, UniProt Q02223 1-184)
T1 construct: H929, MM.1S and U266 carry the native protein; also called B-cell Maturation Antigen; TNFRSF17
T1 sequence: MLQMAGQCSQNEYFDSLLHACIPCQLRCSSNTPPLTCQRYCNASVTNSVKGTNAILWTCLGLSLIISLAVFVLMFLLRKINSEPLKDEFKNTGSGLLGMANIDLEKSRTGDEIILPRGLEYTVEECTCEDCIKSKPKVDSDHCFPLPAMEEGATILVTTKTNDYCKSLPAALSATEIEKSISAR
Assay: flow cytometry, 293T cells transfected with BCMA, above parental 293T background; note: test concentration or dose not given here
Reported Positive (%) values for a set of binders
Kindly report the value followed by its unit.

binder	observed value
SCT-Aa01(h/h) (antibody, V domains shown, Full IgG format, chimeric: human IgG1 heavy chain constant region, human kappa light chain constant region) VH: DVQLQESGPGLVKPSQSLSLTCSVTGYSITSGYYWNWIRQFPGNKLEWMGYIRYDGSNNYNPSLKNRISITRDTSKNQFFLKLNSVTTEDTATYYCAPYDYDYAMDFWGQGTSVTVSS VL: DIQMTQSPASLSASVGETVTITCRASGNIHNYLAWYQQKQGKSPQLLVYNAKTLAHGVPSRFSGSGSGTQYSLKITSLQPEDFGTYYCQHFWSTPFTFGSGTKLEIK	12.3%
SCT-Aa14(m/m) (antibody, V domains shown, Full IgG format: mouse IgG1 heavy chain constant region, mouse kappa light chain constant region) VH: QVQLQQSDAELVKPGASVKISCKVSSYTFTDHTIHWMKQRPEQGLEWIGYIFPRDGSTKYNEKFKGKATLTADKSSSTAYMQLNSLTSEDSAVYFCARWDYEGFDYWGQGTTLTVSS VL: DIVMTQSPATLSVTPGDRVSLSCRASQNISDYLHWYQQKSHESPRLLIKYASQSISGIPSRFSGSGSGSDFTLSINSVEPEDVGVYYCQNGHSFPPTFGSGTKLEIK	52.2%
SCT-Aa10(m/m) (antibody, V domains shown, Full IgG format: mouse IgG1 heavy chain constant region, mouse kappa light chain constant region) VH: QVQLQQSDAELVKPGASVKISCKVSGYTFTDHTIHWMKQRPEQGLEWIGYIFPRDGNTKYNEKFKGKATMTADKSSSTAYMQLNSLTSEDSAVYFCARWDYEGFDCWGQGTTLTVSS VL: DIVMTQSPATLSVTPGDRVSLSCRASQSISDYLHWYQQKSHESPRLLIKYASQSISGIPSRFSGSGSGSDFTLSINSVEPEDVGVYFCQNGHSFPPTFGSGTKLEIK	82.9%
SCT-Aa11(h/h) (antibody, V domains shown, Full IgG format, chimeric: human IgG1 heavy chain constant region, human kappa light chain constant region) VH: QVQLQQSDAELVKPGASVKISCKVSGYTFTDHTIHWMKQRPEQGLEWIGYIFPRDGTTKFNEMFKGKATLTADKSSSTAYMELNSLTSEDSAVYFCARWDYEGFDYWGQGTTLTVSS VL: DIVMTQSPATLSVTPGDRVSLSCRASQSISDYLHWYQQKSHESPRLLIKYASQFISGIPSRFRGSGSGSDFTLSINSVEPEDVGVYYCQNGHSFPPTFGSGTKLEIK	34.9%
SCT-Aa02(m/m) (antibody, V domains shown, Full IgG format: mouse IgG1 heavy chain constant region, mouse kappa light chain constant region) VH: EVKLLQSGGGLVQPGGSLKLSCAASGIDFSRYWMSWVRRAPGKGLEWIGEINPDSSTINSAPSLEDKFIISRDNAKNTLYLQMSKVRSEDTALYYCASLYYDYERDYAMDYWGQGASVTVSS VL: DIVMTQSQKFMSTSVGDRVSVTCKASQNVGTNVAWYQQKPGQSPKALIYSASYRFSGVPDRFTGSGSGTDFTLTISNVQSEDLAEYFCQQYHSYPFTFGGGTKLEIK	96.3%

query: Need Positive (%), item SCT-Aa03(m/m) (antibody, V domains shown, Full IgG format: mouse IgG1 heavy chain constant region, mouse kappa light chain constant region) VH: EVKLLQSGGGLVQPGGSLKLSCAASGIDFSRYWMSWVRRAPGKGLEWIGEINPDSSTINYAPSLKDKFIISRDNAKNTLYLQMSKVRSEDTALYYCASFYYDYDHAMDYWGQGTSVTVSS VL: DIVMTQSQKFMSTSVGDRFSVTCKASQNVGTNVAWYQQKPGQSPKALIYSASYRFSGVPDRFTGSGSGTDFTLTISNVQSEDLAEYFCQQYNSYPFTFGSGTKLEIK
result: 91.6%

query: Try this binder too: SCT-Aa08(m/m) (antibody, V domains shown, Full IgG format: mouse IgG1 heavy chain constant region, mouse kappa light chain constant region) VH: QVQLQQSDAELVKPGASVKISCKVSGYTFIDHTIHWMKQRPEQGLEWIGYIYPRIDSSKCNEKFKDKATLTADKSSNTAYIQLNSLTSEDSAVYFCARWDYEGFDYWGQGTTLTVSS VL: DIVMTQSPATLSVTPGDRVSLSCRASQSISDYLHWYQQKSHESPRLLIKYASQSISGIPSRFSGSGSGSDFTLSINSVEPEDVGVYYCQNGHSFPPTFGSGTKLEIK
result: 70.6%

query: Try this binder too: SCT-Aa11(m/m) (antibody, V domains shown, Full IgG format: mouse IgG1 heavy chain constant region, mouse kappa light chain constant region) VH: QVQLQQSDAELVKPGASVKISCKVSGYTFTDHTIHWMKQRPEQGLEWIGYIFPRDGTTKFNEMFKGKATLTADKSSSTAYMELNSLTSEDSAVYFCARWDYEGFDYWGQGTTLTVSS VL: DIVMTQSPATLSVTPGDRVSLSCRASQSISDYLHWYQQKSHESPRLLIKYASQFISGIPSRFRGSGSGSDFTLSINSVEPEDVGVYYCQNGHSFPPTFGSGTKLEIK
result: 34.6%

query: Try this binder too: SCT-Aa03(h/h) (antibody, V domains shown, Full IgG format, chimeric: human IgG1 heavy chain constant region, human kappa light chain constant region) VH: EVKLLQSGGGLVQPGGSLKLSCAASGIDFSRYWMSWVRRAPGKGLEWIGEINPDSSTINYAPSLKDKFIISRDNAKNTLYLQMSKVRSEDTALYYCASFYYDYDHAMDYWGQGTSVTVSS VL: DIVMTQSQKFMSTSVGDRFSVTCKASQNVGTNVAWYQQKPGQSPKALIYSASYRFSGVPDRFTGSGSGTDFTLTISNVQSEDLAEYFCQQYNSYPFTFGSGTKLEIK
result: 75.1%

query: Try this binder too: SCT-Aa06(m/m) (antibody, V domains shown, Full IgG format: mouse IgG1 heavy chain constant region, mouse kappa light chain constant region) VH: EVQLQQSGPELVKPGNSVKISCKASGYSFTGYFMNWVMQSHGKSLEWIGRINPYNGDTFYNQKFKGKATLTVDKSSSTAHMELRSLTSEDSAVYYCARLDYTNYNSYPMDYWGQGTSVTVSS VL: DIQMTHTTSSLSASLGDRVTISCSASQGISNYLNWYLQKPDGTVKLLIYYTSNLHSGVPSRFSGSGSGTDFSLTISNLQPEDIATYYCQQYSKFPWTFGGGTKLEIK
result: 91.6%
